Assay: Cyclic voltammetry in DMF
Format: physicochemical
Conditions: vs. Ag/AgCl; in DMF
MEASURE NAME: reduction peak potential (mV)
Numbers only, in mV.

Completed entries (count: 3):
[NH2][Pt]([NH2])([Cl])([Cl])([O]C(=O)C(F)(F)F)[O]C(=O)C(F)(F)F [Compound 2, c,c,t-[Pt(NH3)2Cl2(O2CCF3)2]] ... −345
[NH2][Pt]([NH2])([Cl])([Cl])([Cl])[Cl] [Compound 3, cis-[Pt(NH3)2Cl4], reference compound] ... −454
CC(=O)[O][Pt]([NH2])([NH2])([Cl])([Cl])[O]C(C)=O [Compound 1, c,c,t-[Pt(NH3)2Cl2(O2CCH3)2], reference compound] ... −722

// below: reduction peak potential requested for another compound
QUERY: Which value of reduction peak potential has been reported for [NH2][Pt]([NH2])([Cl])([Cl])([O]C(=O)Nc1cccc2ccccc12)[O]C(=O)Nc1cccc2ccccc12 [Compound 11] in the records?
RESULT: −625

* * *

Give measured Ep, V vs. Ag/AgCl (peak reduction potential) for each item. Keep answers brief.
Experiment: Cyclic voltammetry in DMF
Format: physicochemical
Conditions: DMF, 0.1 M (n-Bu4N)PF6, scan rate 100 mV/s
Give bare numbers, in V.

Count: 7. Required value per item: Ep, V vs. Ag/AgCl (peak reduction potential).
1. CC(C)(C)NC(=O)[O][Pt]([NH2])([NH2])([Cl])([Cl])[O]C(=O)NC(C)(C)C
2. CC(=O)[O][Pt]([NH2])([NH2])([Cl])([Cl])[O]C(C)=O [Compound 1, c,c,t-[Pt(NH3)2Cl2(O2CCH3)2], reference compound]
3. [NH2][Pt]([NH2])([Cl])([Cl])([O]C(=O)NC1CCCC1)[O]C(=O)NC1CCCC1
4. [NH2][Pt]([NH2])([Cl])([Cl])([O]C(=O)C(F)(F)F)[O]C(=O)C(F)(F)F [Compound 2, c,c,t-[Pt(NH3)2Cl2(O2CCF3)2]]
5. COc1ccc(NC(=O)[O][Pt]([NH2])([NH2])([Cl])([Cl])[O]C(=O)Nc2ccc(OC)cc2)cc1
6. [NH2][Pt]([NH2])([Cl])([Cl])([Cl])[Cl] [Compound 3, cis-[Pt(NH3)2Cl4], reference compound]
7. [NH2][Pt]([NH2])([Cl])([Cl])([O]C(=O)Nc1cccc2ccccc12)[O]C(=O)Nc1cccc2ccccc12

RESULT:
−0.85
−0.72
−0.85
−0.35
−0.72
−0.45
−0.63

Cited source: paper PMC3065953
